- target system: recombinant HIV-1 integrase (Human immunodeficiency virus type 1 group M subtype B, UniProt P03366)
- Construct: The ability of recombinant HIV-1 integrase; S. Hughes, ABL Basic Research NCI-FCRDC, Frederick MD (supplied, not a catalogue product)
- protocol notes: Integrase 3' processing and strand transfer assay
- assay setup: Table 7; high dose test of 100 µM; read-out: Integrase I50
- Description: The 5-bromovaleroyl thioester, compound 44, and two 5-pyridiniovaleroyl thioesters, compounds 45 and 47, were analyzed in mechanistic and target-based assays. […] Assays for activity against HIV-1 reverse transcriptase rAdT (template/primer) and rCdG (template/primer) using recombinant HIV-1 reverse transcriptase (S. Hughes, ABL Basic Research NCI-FCRDC, Frederick MD) were performed as described by Rice (1997) supra. […]
readout: IC50

>>> df
                                   molecule  readout  reported
0  CC(=O)NS(=O)(=O)c1ccc(NC(=O)c2ccccc2SC(=O)CCCCBr)cc1 [Compound 44]     IC50  > 100 µM
1  CC(=O)NS(=O)(=O)c1ccc(NC(=O)c2ccccc2SC(=O)CCCC[n+]2ccccc2)cc1 [Compound 45]     IC50  > 100 µM

Reference source for all entries: patent EP1087941B9
